I'd be grateful if you could share measured cytotoxicity at 70.5 h for these entries.
experiment: Human HepG2 cell viability assay in 384 well format; format: toxicity, cell-based; design: dose 125 nL, time 70.5 hour; concentration not given beside the values; conditions: HepG2 cells, read-out: Inhibition
Numbers only, in %.

Each of the following entries comes with a recorded value; kindly state cytotoxicity at 70.5 h for each.
1. Cc1ncccc1CNCC1CCN(CC(O)c2ccccc2)CC1 (stereo unspecified)
2. CCn1nc(CC(C)C)cc1C(=O)N1C[C@H](O)[C@@H](N2CCCCC2)C1
3. CC(C)N1[C@H](CN2CCCC2)C[C@@H]2CN(Cc3ccoc3)CC[C@@H]21
4. FC(F)(F)c1ccc(-c2cnc(C3CCCN3)cn2)cc1 (stereo unspecified)
5. OC(CN1CCN(CCOCC(F)(F)F)CC1)c1ccccc1 (stereo unspecified)
6. CS(=O)(=O)N1CCCC12CCCN(C(=O)c1ccc3c(c1)OCO3)C2 (stereo unspecified)
7. CCNc1ccnc(N2Cc3cnc(CC(C)C)nc3C2)n1

RESULT:
[-1.3, -4.55, -10, 13.6, 24.5, -7.38, 18.4]

Field: cytotoxicity at 70.5 h. Fill in for each record below.
1. OCC1CCCN1c1cc(NCc2ccsc2)ncn1 (stereo unspecified)
2. CCOCC1CN(Cc2cccc(C#N)c2)Cc2nccn2C1 (stereo unspecified)
3. Cc1cc(C(=O)N2CCCC2)ccc1NCCO
4. CCn1cc(CN2C[C@@H]3CCCN3C[C@H]2CCSC)c(C)n1
5. CCOCC(=O)N1C[C@H]2CN(CC3CC3)C(=O)[C@H]2C1
6. CCCN1CCN(C(=O)C(C)n2cc(Br)cn2)CC1 (stereo unspecified)
7. COC(=O)COc1nc(CC(C)C)c2c(c1C#N)CCCC2
8. Cc1ccc(CN2CCOC(C)(c3cnn(C)c3)C2)cc1 (stereo unspecified)

RESULT:
1. 1.84
2. -1.89
3. -10.2
4. -4.8
5. -5.22
6. -7.56
7. 7.01
8. -2.83

QUERY: Look up cytotoxicity at 70.5 h of CCC(Nc1cccc(OC)c1)C(=O)N(CCO)Cc1nccs1 (stereo unspecified) and report it.
RESULT: -3.06

###

Exercise: for every item that follows, state its recorded cytotoxicity at 70.5 h.
test: Human HepG2 cell viability assay in 384 well format; assay type: toxicity, cell-based; parameters: dose 125 nL, time 70.5 hour; concentration not given beside the values; conditions: HepG2 cells, read-out: Inhibition

COMPOUND	ASSAY_VALUE
Cc1cnn(C2CCCN(C(=O)CCc3nccs3)C2)c1 (configuration not stated)	17.1%
FC(F)(F)c1cc(NCCCn2cccn2)nc(-c2cccnc2)n1	22.2%
O=C(CCc1ccsc1)NCC1CCN(Cc2cccs2)CC1	-4.26%

# batch: return cytotoxicity at 70.5 h for each of the 2 compounds below
1. CC(=O)N1CCCN(CC(C)(O)c2cccc(C(F)(F)F)c2)CC1 (configuration not stated)
2. CCOc1ccccc1NC(=O)NCc1ccoc1

RESULT:
1. -3.98%
2. -1.18%

###

assay: Human HepG2 cell viability assay in 384 well format; assay type: toxicity, cell-based; set-up: dose 125 nL, time 70.5 hour; concentration not given beside the values; conditions: HepG2 cells, read-out: Inhibition
For each entry below, report its cytotoxicity at 70.5 h value.
Numbers only, in %.

Example results:
MOLECULE	READOUT_TYPE	ASSAY_VALUE
COc1c(C2CCCN2C(=O)c2csc(C3CC3)n2)c(C)nn1C (centres undefined)	cytotoxicity at 70.5 h	15.2
COCc1noc(CN2C[C@H](C3CC3)[C@@H](N(C)C)C2)n1	cytotoxicity at 70.5 h	-8.41
CC(C)OC(=O)N1C[C@H]2CC[C@@H]1CN(C(=O)c1ccccc1)C2	cytotoxicity at 70.5 h	-2.95

QUERY: For the molecule `CCN(C)Cc1cnc(S(=O)(=O)CC)n1CCOC` , report cytotoxicity at 70.5 h.
RESULT: -3.96
